# target: BCRP (Homo sapiens (Human))
# Sequence (Q9UNQ0 whole entry): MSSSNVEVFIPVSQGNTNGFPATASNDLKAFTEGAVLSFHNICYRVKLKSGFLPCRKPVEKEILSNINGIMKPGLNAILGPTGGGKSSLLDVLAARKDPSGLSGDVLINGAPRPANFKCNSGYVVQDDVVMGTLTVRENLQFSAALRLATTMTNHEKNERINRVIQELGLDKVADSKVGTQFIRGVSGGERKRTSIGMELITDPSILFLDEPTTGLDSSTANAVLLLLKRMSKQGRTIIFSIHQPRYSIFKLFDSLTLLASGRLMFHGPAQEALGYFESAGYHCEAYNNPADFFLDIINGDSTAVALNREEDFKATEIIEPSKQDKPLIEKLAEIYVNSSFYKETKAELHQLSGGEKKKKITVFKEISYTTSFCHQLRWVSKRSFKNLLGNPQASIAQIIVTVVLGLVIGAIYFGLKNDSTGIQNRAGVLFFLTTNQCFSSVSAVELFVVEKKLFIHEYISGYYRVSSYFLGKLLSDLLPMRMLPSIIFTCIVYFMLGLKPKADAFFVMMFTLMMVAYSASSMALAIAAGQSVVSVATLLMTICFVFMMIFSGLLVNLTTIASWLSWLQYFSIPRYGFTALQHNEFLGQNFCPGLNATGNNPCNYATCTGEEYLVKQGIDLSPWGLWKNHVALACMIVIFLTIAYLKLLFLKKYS
# assay_overview: BCRP MDCKII permeability assay: efflux ratio
# Type: in vitro ADME
# test_context: dog
Structures can show the parent of a compound that is named as a salt.
Param threshold (2) applies to efflux ratio at 2 h, 1 µM; output 1 when value >= threshold, 0 when value < threshold.

[ask] Is efflux ratio at 2 h, 1 µM for COCC1(F)CN(S(=O)(=O)Nc2ccc(F)c(Nc3ccc4ncn(C)c(=O)c4c3C)c2Cl)C1 [Example 145, trifluoroacetate] at or above 2?
[reply] 1

[ask] Is efflux ratio at 2 h, 1 µM for Cc1c(Nc2c(F)ccc(NS(=O)(=O)N3CC4CC3C4)c2Cl)ccc2ncn(C)c(=O)c12 [Example 87, trifluoroacetate] at or above 2?
[reply] 0

[ask] Is efflux ratio at 2 h, 1 µM for Cn1cnc2ccc(Oc3c(F)ccc(NS(=O)(=O)N4CC5CC4C5)c3Cl)c(F)c2c1=O [Example 49] at or above 2?
[reply] 0

[ask] Is efflux ratio at 2 h, 1 µM for Cc1c(Nc2c(F)ccc(NS(=O)(=O)N3CCCCC3)c2Cl)ccc2ncn(C)c(=O)c12 [Example 84] at or above 2?
[reply] 0

[ask] Is efflux ratio at 2 h, 1 µM for CC[C@@H]1CCN(S(=O)(=O)Nc2ccc(F)c(Nc3ccc4ncn(C)c(=O)c4c3Cl)c2Cl)C1 [Example 106, trifluoroacetate] at or above 2?
[reply] 0

[ask] Is efflux ratio at 2 h, 1 µM for Cc1c(Nc2c(F)ccc(NS(=O)(=O)N3CCC3)c2Cl)ccc2ncn(C)c(=O)c12 [Example 124, trifluoroacetate] at or above 2?
[reply] 0

[ask] Is efflux ratio at 2 h, 1 µM for Cn1cnc2ccc(Nc3c(F)ccc(NS(=O)(=O)N4CCC(F)(F)C4)c3Cl)c(Cl)c2c1=O [Example 25, trifluoroacetate] at or above 2?
[reply] 1

[ask] Is efflux ratio at 2 h, 1 µM for Cc1c(Nc2c(F)ccc(NS(=O)(=O)N3CC4CC4C3)c2Cl)ccc2ncn(C)c(=O)c12 (stereo not shown) [Example 92] at or above 2?
[reply] 0

[ask] Is efflux ratio at 2 h, 1 µM for Cn1cnc2ccc(Nc3c(F)ccc(NS(=O)(=O)N4C[C@@H](F)[C@@H](F)C4)c3Cl)c(Cl)c2c1=O [Example 22] at or above 2?
[reply] 1

[ask] Is efflux ratio at 2 h, 1 µM for Cn1cnc2ccc(Nc3c(F)ccc(NS(=O)(=O)N4CC[C@@H](OC(F)F)C4)c3Cl)c(F)c2c1=O [Example 26] at or above 2?
[reply] 1

[ask] Is efflux ratio at 2 h, 1 µM for Cn1cnc2ccc(Nc3c(F)ccc(NS(=O)(=O)N4C[C@@H](F)[C@@H](F)C4)c3Cl)c(F)c2c1=O [Example 21] at or above 2?
[reply] 1

[ask] Is efflux ratio at 2 h, 1 µM for Cn1cnc2ccc(Nc3c(F)ccc(NS(=O)(=O)N4CCCC4)c3Cl)c(F)c2c1=O [Example 7, trifluoroacetate] at or above 2?
[reply] 1

[ask] Is efflux ratio at 2 h, 1 µM for Cn1cnc2ccc(Nc3c(F)ccc(NS(=O)(=O)N4CC[C@@H](F)C4)c3Cl)c(Cl)c2c1=O [Example 19] at or above 2?
[reply] 0

[ask] Is efflux ratio at 2 h, 1 µM for Cn1cnc2ccc(Nc3c(F)ccc(NS(=O)(=O)N4CC[C@H](F)C4)c3Cl)c(F)c2c1=O [Example 27, trifluoroacetate] at or above 2?
[reply] 1

[ask] Is efflux ratio at 2 h, 1 µM for Cn1cnc2ccc(Nc3c(F)ccc(NS(=O)(=O)N4CCCC4)c3Cl)c(Br)c2c1=O [Example 11, trifluoroacetate] at or above 2?
[reply] 0

[ask] Is efflux ratio at 2 h, 1 µM for COCC1CN(S(=O)(=O)Nc2ccc(F)c(Oc3ccc4ncn(C)c(=O)c4c3C)c2Cl)C1 [Example 115] at or above 2?
[reply] 0

[ask] Is efflux ratio at 2 h, 1 µM for Cn1cnc2ccc(Oc3c(F)ccc(NS(=O)(=O)N4CC5CC4C5)c3Cl)c(Cl)c2c1=O [Example 67] at or above 2?
[reply] 0

[ask] Is efflux ratio at 2 h, 1 µM for CO[C@@H]1CCN(S(=O)(=O)Nc2ccc(F)c(Nc3ccc4ncn(C)c(=O)c4c3Cl)c2Cl)C1 [Example 6] at or above 2?
[reply] 0

[ask] Is efflux ratio at 2 h, 1 µM for Cn1cnc2ccc(Nc3c(F)c(F)cc(NS(=O)(=O)N4CC[C@@H](F)C4)c3F)c(Cl)c2c1=O [Example 36, trifluoroacetate] at or above 2?
[reply] 1

[ask] Is efflux ratio at 2 h, 1 µM for CCOC1CN(S(=O)(=O)Nc2ccc(F)c(Nc3ccc4ncn(C)c(=O)c4c3C)c2Cl)C1 [Example 160] at or above 2?
[reply] 0

[ask] Is efflux ratio at 2 h, 1 µM for COC1CN(S(=O)(=O)Nc2ccc(F)c(Oc3ccc4ncn(C)c(=O)c4c3F)c2Cl)C1 [Example 123] at or above 2?
[reply] 1

[ask] Is efflux ratio at 2 h, 1 µM for CCN(C)S(=O)(=O)Nc1ccc(F)c(Oc2ccc3ncn(C)c(=O)c3c2Cl)c1Cl [Example 109] at or above 2?
[reply] 0

[ask] Is efflux ratio at 2 h, 1 µM for CO[C@@H]1CCN(S(=O)(=O)Nc2cc(F)c(F)c(Nc3ccc4ncn(C)c(=O)c4c3Cl)c2F)C1 [Example 34] at or above 2?
[reply] 1

[ask] Is efflux ratio at 2 h, 1 µM for Cc1c(Nc2c(F)ccc(NS(=O)(=O)N3CCCC3)c2F)ccc2ncn(C)c(=O)c12 [Example 113, trifluoroacetate] at or above 2?
[reply] 0

[ask] Is efflux ratio at 2 h, 1 µM for Cn1cnc2ccc(Oc3c(F)ccc(NS(=O)(=O)N4CC[C@@H](OC(F)F)C4)c3Cl)c(F)c2c1=O [Example 66] at or above 2?
[reply] 1

[ask] Is efflux ratio at 2 h, 1 µM for CO[C@@H]1CN(S(=O)(=O)Nc2ccc(F)c(Nc3ccc4ncn(C)c(=O)c4c3F)c2Cl)C[C@@H]1F (relative stereo) [Example 15] at or above 2?
[reply] 1

[ask] Is efflux ratio at 2 h, 1 µM for CO[C@@H]1CCN(S(=O)(=O)Nc2ccc(F)c(Nc3ccc4ncn(C)c(=O)c4c3C)c2Cl)C1 [Example 1] at or above 2?
[reply] 0

[ask] Is efflux ratio at 2 h, 1 µM for Cn1cnc2ccc(Nc3c(F)ccc(NS(=O)(=O)N4CCC(F)(F)C4)c3Cl)c(F)c2c1=O [Example 23] at or above 2?
[reply] 1

---

Field: Kp. Provide a value for each of the molecules that follow.
# assay_overview: PK (free brain-to-free plasma ratio) (mouse)
# Type: in vivo
# test_context: male CD-1 mice, oral gavage 10 mg/kg, unbound brain-to-unbound plasma, read-out: B/P ratio (free)

Recorded Kp (molecule Cn1cnc2ccc(Nc3c(F)ccc(NS(=O)(=O)N4CC[C@@H](OC(F)F)C4)c3Cl)c(Cl)c2c1=O [Example 29] ): 0.41 to 0.55

Recorded Kp (molecule Cn1cnc2ccc(Oc3c(F)ccc(NS(=O)(=O)N4CC[C@@H](F)C4)c3Cl)c(Cl)c2c1=O [Example 38] ): 0.2 to 0.24

Recorded Kp (molecule COC1CN(S(=O)(=O)Nc2ccc(F)c(Nc3ccc4ncn(C)c(=O)c4c3F)c2Cl)C1 [Example 130] ): 0.12 to 0.16

Recorded Kp (molecule CO[C@@H]1CCN(S(=O)(=O)Nc2ccc(F)c(Nc3ccc4ncn(C)c(=O)c4c3Cl)c2Cl)C1 [Example 6] ): 0.87 to 1.76

---

Field: Kp. Provide a value for each of the compounds that follow.
# assay_overview: PK (free brain-to-free plasma ratio) (mouse)
# Type: in vivo
# test_context: male CD-1 mice, oral gavage 10 mg/kg, unbound brain-to-unbound plasma, read-out: B/P ratio (free)

Recorded Kp (compound Cn1cnc2ccc(Nc3c(F)ccc(NS(=O)(=O)N4CC5CC5C4)c3Cl)c(Cl)c2c1=O (stereo not shown) ): 0.61 to 0.64

Recorded Kp (compound Cn1cnc2ccc(Nc3c(F)ccc(NS(=O)(=O)N4CC[C@@H](F)C4)c3Cl)c(F)c2c1=O ): 0.13 to 0.39

Recorded Kp (compound Cc1c(Oc2c(F)ccc(NS(=O)(=O)N3CC[C@@H](F)C3)c2Cl)ccc2ncn(C)c(=O)c12 ): 0.17 to 0.36

Recorded Kp (compound Cn1cnc2ccc(Oc3c(F)ccc(NS(=O)(=O)N4CC[C@@H](F)C4)c3Cl)c(F)c2c1=O ): 0.4 to 0.58

---

# assay_overview: MDR1 LLC-PK1 and BCRP MDCKII permeability assay: permeability coefficient (Papp)
# Type: in vitro ADME
Counter-ions that a name gives are not always drawn.
measurement_kind: Papp at 2 h, 1 µM (×10⁻⁶ cm/s)
Report as a plain number; the unit ×10⁻⁶ cm/s is understood.

Recorded Papp at 2 h, 1 µM (compound COCC1CN(S(=O)(=O)Nc2ccc(F)c(Oc3ccc4ncn(C)c(=O)c4c3C)c2Cl)C1 ): 28

Recorded Papp at 2 h, 1 µM (compound CO[C@@H]1CCN(S(=O)(=O)Nc2ccc(F)c(Oc3ccc4ncn(C)c(=O)c4c3Cl)c2Cl)C1 ): 29

Recorded Papp at 2 h, 1 µM (compound Cc1c(Nc2c(F)c(F)cc(NS(=O)(=O)N3CCCC3)c2Cl)ccc2ncn(C)c(=O)c12 ): 27

Recorded Papp at 2 h, 1 µM (compound Cc1c(Nc2c(F)ccc(NS(=O)(=O)N3CC4(CC4)C3)c2Cl)ccc2ncn(C)c(=O)c12 [Example 163, trifluoroacetate] ): 23

Recorded Papp at 2 h, 1 µM (compound Cc1c(Nc2cc(Cl)cc(NS(=O)(=O)N3CC[C@@H](F)C3)c2F)ccc2ncn(C)c(=O)c12 ): 25

Recorded Papp at 2 h, 1 µM (compound Cn1cnc2ccc(Oc3c(F)ccc(NS(=O)(=O)N4CC[C@H](F)C4)c3Cl)c(Cl)c2c1=O ): 30

Recorded Papp at 2 h, 1 µM (compound Cc1c(Nc2c(F)ccc(NS(=O)(=O)N3CC4CC4(C)C3)c2Cl)ccc2ncn(C)c(=O)c12 (stereo not shown) ): 25

Recorded Papp at 2 h, 1 µM (compound Cn1cnc2ccc(Nc3c(F)c(F)cc(NS(=O)(=O)N4CCCC4)c3Cl)c(Cl)c2c1=O [Example 31, trifluoroacetate] ): 31

Recorded Papp at 2 h, 1 µM (compound Cc1c(Nc2c(F)ccc(NS(=O)(=O)N3CC4CC4C3)c2Cl)ccc2ncn(C)c(=O)c12 (stereo not shown) ): 22

Recorded Papp at 2 h, 1 µM (compound Cc1c(Nc2c(F)ccc(NS(=O)(=O)N3CC(F)(F)C3)c2Cl)ccc2ncn(C)c(=O)c12 ): 33

Recorded Papp at 2 h, 1 µM (compound Cc1c(Nc2cc(F)cc(NS(=O)(=O)N3CC[C@@H](F)C3)c2Cl)ccc2ncn(C)c(=O)c12 ): 28

Recorded Papp at 2 h, 1 µM (compound [2H]C([2H])([2H])O[C@@H]1CCN(S(=O)(=O)Nc2ccc(F)c(Nc3ccc4ncn(C)c(=O)c4c3F)c2Cl)C1 [Example 54, trifluoroacetate] ): 31

Recorded Papp at 2 h, 1 µM (compound CO[C@H]1CN(S(=O)(=O)Nc2ccc(F)c(Nc3ccc4ncn(C)c(=O)c4c3Br)c2Cl)C[C@H]1F (relative stereo) [Example 16, trifluoroacetate] ): 29

Recorded Papp at 2 h, 1 µM (compound Cn1cnc2ccc(Nc3c(F)ccc(NS(=O)(=O)N4CCCC4)c3Cl)c(Cl)c2c1=O [Example 12, trifluoroacetate] ): 28

Recorded Papp at 2 h, 1 µM (compound Cc1c(Nc2c(F)c(F)cc(NS(=O)(=O)N3CC[C@@H](F)C3)c2Cl)ccc2ncn(C)c(=O)c12 ): 31

Recorded Papp at 2 h, 1 µM (compound Cn1cnc2ccc(Oc3c(F)ccc(NS(=O)(=O)N4CC5CC4C5)c3Cl)c(Cl)c2c1=O ): 24

Recorded Papp at 2 h, 1 µM (compound Cn1cnc2ccc(Oc3c(F)ccc(NS(=O)(=O)N4C[C@@H](F)[C@@H](F)C4)c3Cl)c(F)c2c1=O ): 34

Recorded Papp at 2 h, 1 µM (compound CO[C@@H]1CCN(S(=O)(=O)Nc2ccc(F)c(Nc3ccc4ncn(C)c(=O)c4c3Cl)c2Cl)C1 ): 27

Recorded Papp at 2 h, 1 µM (compound CCOC1CN(S(=O)(=O)Nc2ccc(F)c(Nc3ccc4ncn(C)c(=O)c4c3Cl)c2Cl)C1 ): 29

Recorded Papp at 2 h, 1 µM (compound Cn1cnc2ccc(Nc3c(F)ccc(NS(=O)(=O)N4CCC(F)(F)C4)c3Cl)c(F)c2c1=O ): 24

Recorded Papp at 2 h, 1 µM (compound Cn1cnc2ccc(Nc3c(F)ccc(NS(=O)(=O)N4CCC(F)(F)C4)c3Cl)c(Cl)c2c1=O [Example 25, trifluoroacetate] ): 30

Recorded Papp at 2 h, 1 µM (compound Cc1c(Nc2c(F)ccc(NS(=O)(=O)N3CC4(CCC4)C3)c2Cl)ccc2ncn(C)c(=O)c12 [Example 157, trifluoroacetate] ): 23

Recorded Papp at 2 h, 1 µM (compound Cn1cnc2ccc(Nc3c(F)ccc(NS(=O)(=O)N4CC[C@@H](F)C4)c3Cl)c(Cl)c2c1=O ): 30

Recorded Papp at 2 h, 1 µM (compound Cn1cnc2ccc(Nc3c(F)ccc(NS(=O)(=O)N4CC(F)(F)C4)c3Cl)c(F)c2c1=O ): 24

Recorded Papp at 2 h, 1 µM (compound CO[C@@H]1CCN(S(=O)(=O)Nc2ccc(F)c(Oc3ccc4ncn(C)c(=O)c4c3C)c2Cl)C1 ): 27

Recorded Papp at 2 h, 1 µM (compound CCOC1CN(S(=O)(=O)Nc2ccc(F)c(Nc3ccc4ncn(C)c(=O)c4c3C)c2Cl)C1 ): 38

Recorded Papp at 2 h, 1 µM (compound Cc1c(Nc2c(F)ccc(NS(=O)(=O)N3CC[C@@H](OC(F)F)C3)c2Cl)ccc2ncn(C)c(=O)c12 ): 21

Recorded Papp at 2 h, 1 µM (compound Cn1cnc2ccc(Nc3c(F)ccc(NS(=O)(=O)N4CCCC4)c3Cl)c(F)c2c1=O [Example 7, trifluoroacetate] ): 29

# credit: patent US12303509B2
